- protocol-notes: Rat Pharmacokinetic Screening IV/PO
- Format: in vivo
- experimental-conditions: male, plasma clearance, IV administration
parameter: clearance (mL/min/kg)

compound | units-symbol | clearance
O=C(O)c1ccc(NC(=O)[C@H](CC2CCC2)c2ccc(-c3c(C(F)F)ccc(Cl)c3F)c[n+]2[O-])cc1 (mixture of isomers) | mL/min/kg | 5.1
C[C@H]1C[C@@H]1C[C@@H](C(=O)Nc1ccc(C(=O)O)cc1)c1ccc(-c2c(OC(F)F)ccc(Cl)c2F)c[n+]1[O-] (single isomer, unassigned) | mL/min/kg | 4.3
O=C(O)c1ccc(NC(=O)[C@H](CC2CC2)c2ccc(-c3c(C(F)F)ccc(Cl)c3F)c[n+]2[O-])cc1 (mixture of isomers) | mL/min/kg | 1.9

I = O=C(O)c1ccc(NC(=O)[C@H](CC2CC2)c2ccc(-c3c(OC(F)F)ccc(Cl)c3F)c[n+]2[O-])cc1 (single isomer, unassigned)
II = O=C(O)c1ccc(NC(=O)C(CC2CC2(F)F)c2ccc(-c3c(C(F)F)ccc(Cl)c3F)c[n+]2[O-])cc1 (single isomer, unassigned)
Exercise: Looking only at measured clearance, which entry is lower, I or II ? Provide the label of your selected option as the answer.
Key: I
(I: 5 mL/min/kg, II: 12.1 mL/min/kg)

----------
- target-desc: Human plasma kallikrein (Homo sapiens (Human), UniProt P03952)
- Sequence (P03952 391-638): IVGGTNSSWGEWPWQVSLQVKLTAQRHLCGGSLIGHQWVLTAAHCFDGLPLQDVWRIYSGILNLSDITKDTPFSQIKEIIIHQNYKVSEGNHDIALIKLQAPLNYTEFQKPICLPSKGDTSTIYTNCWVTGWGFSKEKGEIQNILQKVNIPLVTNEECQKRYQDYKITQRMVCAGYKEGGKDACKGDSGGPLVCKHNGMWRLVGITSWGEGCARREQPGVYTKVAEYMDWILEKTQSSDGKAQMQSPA
- Sequence (P03952 20-390 partner): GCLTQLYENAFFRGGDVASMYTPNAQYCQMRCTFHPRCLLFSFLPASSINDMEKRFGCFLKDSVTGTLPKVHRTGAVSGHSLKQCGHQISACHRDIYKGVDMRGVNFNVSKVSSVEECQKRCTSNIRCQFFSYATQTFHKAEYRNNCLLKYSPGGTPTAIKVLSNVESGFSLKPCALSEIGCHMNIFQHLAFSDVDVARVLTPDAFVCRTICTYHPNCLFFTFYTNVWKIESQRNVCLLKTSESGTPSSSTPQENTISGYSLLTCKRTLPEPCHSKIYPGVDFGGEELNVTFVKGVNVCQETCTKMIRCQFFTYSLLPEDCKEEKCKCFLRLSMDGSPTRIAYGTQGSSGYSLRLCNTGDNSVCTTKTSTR
- protocol-notes: Kallikrein Assay
- experimental-conditions: purified Human plasma kallikrein 0.5 nM, substrate Acetyl-K-P-R-AFC; read-out: P. KLK IC50
parameter: IC50 (nM)

compound | units-symbol | IC50
O=C(O)c1ccc(NC(=O)C(CC2CCC2)c2ccc(-c3c(OC(F)F)ccc(Cl)c3F)c[n+]2[O-])cc1 (single isomer, unassigned) | nM | 20

P = O=C(O)c1ccc(NC(=O)C(CC2CC2F)c2ccc(-c3c(C(F)F)ccc(Cl)c3F)c[n+]2[O-])cc1 (single isomer, unassigned)
Q = COC(=O)c1ccc(NC(=O)C(CC2CC2)c2ccc(-c3c(C(F)F)ccc(Cl)c3F)c[n+]2[O-])cc1 (single isomer, unassigned)
Exercise: Looking only at measured IC50, which entry is lower, P or Q ? Provide the label of your selected option as the answer.
Key: P

----------
- target-desc: Human plasma kallikrein (Homo sapiens (Human))
- protocol-notes: Kallikrein Assay
- experimental-conditions: purified Human plasma kallikrein 0.5 nM, substrate Acetyl-K-P-R-AFC; read-out: P. KLK IC50
- Description: The effectiveness of a compound of the present invention as an inhibitor of Kallikrein can be determined using a relevant purified serine protease, and an appropriate synthetic substrate. The rate of hydrolysis of the chromogenic or fluorogenic substrate by the relevant serine protease was measured both in the absence and presence of compounds of the present invention. […] A decrease in the rate of fluorescence change in the presence of inhibitor is indicative of enzyme inhibition. […]
parameter: IC50 (nM)

// below: answered molecules
molecule | parameter | assay-result
O=C(O)c1ccc(NC(=O)C(CC2CCC(F)(F)CC2)c2ccc(-c3c(OC(F)F)ccc(Cl)c3F)c[n+]2[O-])cc1 (single isomer, unassigned) [Example 39] | IC50 | 25
CC1CC1C[C@@H](C(=O)Nc1ccc(C(=O)O)cc1)c1ccc(-c2c(C(F)(F)F)ccc(Cl)c2F)c[n+]1[O-] (single isomer, unassigned) [Example 65] | IC50 | 51
O=C(O)c1ccc(NC(=O)C(CC2CCCC2)c2ccc(-c3c(OC(F)F)ccc(Cl)c3F)c[n+]2[O-])cc1 (single isomer, unassigned) [Example 19] | IC50 | 20

A = CC1CC(CC(C(=O)Nc2ccc(C(=O)O)cc2)c2ccc(-c3c(C(F)(F)F)ccc(Cl)c3F)c[n+]2[O-])C1 (single isomer, unassigned) [Example 74]
B = CC1CC1C[C@@H](C(=O)Nc1ccc(C(=O)O)cc1)c1ccc(-c2c(C(F)F)ccc(Cl)c2F)c[n+]1[O-] (single isomer, unassigned) [Example 62]
Exercise: Looking only at measured IC50, which entry is lower, A or B ? Provide the label of your selected option as the answer.
Key: B

P = O=C(O)c1ccc(NC(=O)C(CC23CC(C2)C3)c2ccc(-c3c(OC(F)F)ccc(Cl)c3F)c[n+]2[O-])cc1 (single isomer, unassigned) [Example 52]
Q = O=C(O)c1ccc(NC(=O)C(CC2CC(F)(F)C2)c2ccc(-c3c(OC(F)F)ccc(Cl)c3F)c[n+]2[O-])cc1 (racemic) [Example 50]
R = N#CC1(CC(C(=O)Nc2ccc(C(=O)O)cc2)c2ccc(-c3c(C(F)(F)F)ccc(Cl)c3F)c[n+]2[O-])CC1 (racemic) [Example 30]
S = O=C(O)c1ccc(NC(=O)C(CC2CC2C(F)(F)F)c2ccc(-c3c(C(F)F)ccc(Cl)c3F)c[n+]2[O-])cc1 (single isomer, unassigned) [Example 87]
Exercise: Rank the 4 molecules: largest IC50 first, smallest last. API: response body holds the labels in the requested order.
Key: R, Q, P, S
(R: 155 nM, Q: 47 nM, P: 14 nM, S: 2.7 nM)

A = O=C(O)c1ccc(NC(=O)C(C[C@H]2CC[C@H](O)CC2)c2ccc(-c3c(OC(F)F)ccc(Cl)c3F)c[n+]2[O-])cc1 (single isomer, unassigned) [Example 35]
B = O=C(O)c1ccc(NC(=O)C(CC2CC2)c2ccc(-c3c(OC(F)F)ccc(Cl)c3F)c[n+]2[O-])cc1F (single isomer, unassigned) [Example 73]
Exercise: Looking only at measured IC50, which entry is lower, A or B ? Provide the label of your selected option as the answer.
Key: A
(A: 12 nM, B: 88 nM)

Value source: patent US10143681B2
